This section presents binders with their documented EC50 values.
# Target System: T1, human SLC34A2 (human, UniProt O95436 1-690)
# T1 construct: whole, on cells; also called human solute carrier 34 A2; NaPi2b
# T1 sequence (looked up): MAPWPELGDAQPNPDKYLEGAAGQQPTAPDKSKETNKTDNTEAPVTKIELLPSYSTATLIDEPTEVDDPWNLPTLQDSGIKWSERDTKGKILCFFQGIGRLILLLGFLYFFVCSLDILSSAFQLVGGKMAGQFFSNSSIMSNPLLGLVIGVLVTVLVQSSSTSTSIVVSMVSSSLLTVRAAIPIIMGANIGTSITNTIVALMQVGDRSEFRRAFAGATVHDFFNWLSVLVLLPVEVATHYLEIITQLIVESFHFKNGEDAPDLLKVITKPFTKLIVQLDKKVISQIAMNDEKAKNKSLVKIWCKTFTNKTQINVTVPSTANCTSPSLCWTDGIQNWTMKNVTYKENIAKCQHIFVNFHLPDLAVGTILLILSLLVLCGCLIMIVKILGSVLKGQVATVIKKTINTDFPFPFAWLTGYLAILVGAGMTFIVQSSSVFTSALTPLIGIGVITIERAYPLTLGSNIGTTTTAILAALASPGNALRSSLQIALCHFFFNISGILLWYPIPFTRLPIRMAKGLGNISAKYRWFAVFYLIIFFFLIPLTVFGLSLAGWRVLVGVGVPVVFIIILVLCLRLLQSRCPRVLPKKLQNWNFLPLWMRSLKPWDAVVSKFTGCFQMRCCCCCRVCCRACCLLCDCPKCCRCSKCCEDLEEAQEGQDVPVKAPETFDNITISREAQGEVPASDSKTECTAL
# Procedure Summary: FACS, RMG-1 cells
Write the value in nM as a bare number.

Consider the following illustrative entries.
{"Binder": "63A11D5B4 VH_P1/VL hIgG1 (antibody, V domains shown, PTM-derisked chimeric, hIgG1; that P1 is the SG version follows from the humanized .p1 chains; also called 63A11D5B4.p1 hIgG1) VH: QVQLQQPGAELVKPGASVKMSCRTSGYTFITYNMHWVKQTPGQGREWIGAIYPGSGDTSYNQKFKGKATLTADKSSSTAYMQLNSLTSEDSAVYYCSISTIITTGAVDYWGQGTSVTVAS VL: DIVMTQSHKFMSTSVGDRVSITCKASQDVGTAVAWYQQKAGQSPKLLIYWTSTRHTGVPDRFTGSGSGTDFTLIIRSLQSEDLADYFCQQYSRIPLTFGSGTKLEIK", "Experimental Endpoint": "EC50", "Unit Annotation": "nM", "Recorded Result": 12.5}
{"Binder": "62G10E4G8.p3.z11 hIgG1 (antibody, V domains shown, humanized hIgG1) VH: QVQLVQSGAEVKKPGASVKVSCKASGYTFPSYITHWVKQAPGQGLEWIGAIYPGNADTSYIQKFKGRVTLTADKSTSTAYMELSSLRSEDTAVYYCARGTYGTSAWFTYWGQGTLVTVSS VL: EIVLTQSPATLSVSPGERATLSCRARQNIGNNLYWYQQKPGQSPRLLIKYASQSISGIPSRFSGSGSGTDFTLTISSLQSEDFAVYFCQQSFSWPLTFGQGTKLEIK", "Experimental Endpoint": "EC50", "Unit Annotation": "nM", "Recorded Result": 11.4}
{"Binder": "62G10E4G8.p3.z8 hIgG1 (antibody, V domains shown, humanized hIgG1) VH: QVQLVQSGAEVKKPGASVKVSCKASGYTFPSYITHWVRQAPGQGLEWIGAIYPGNADTSYIQKFKGRVTMTADKSTSTVYMELSSLRSEDTAVYYCARGTYGTSAWFTYWGQGTLVTVSS VL: EIVLTQSPATLSASPGERATLSCRARQNIGNNLYWYQQKPGQSPRLLIKYASQSISGIPSRFSGSGSGTDFTLTISSVQSEDFAVYFCQQSFSWPLTFGAGTKLEIK", "Experimental Endpoint": "EC50", "Unit Annotation": "nM", "Recorded Result": 11.1}
{"Binder": "30H9B8F9.p1.z9 hIgG1 (antibody, V domains shown, humanized hIgG1) VH: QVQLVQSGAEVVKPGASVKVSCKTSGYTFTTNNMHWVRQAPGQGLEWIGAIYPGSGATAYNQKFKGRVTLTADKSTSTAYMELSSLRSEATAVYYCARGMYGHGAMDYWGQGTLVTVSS VL: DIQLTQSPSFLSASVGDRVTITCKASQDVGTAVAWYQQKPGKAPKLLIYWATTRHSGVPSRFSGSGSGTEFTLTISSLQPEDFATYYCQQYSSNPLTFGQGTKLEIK", "Experimental Endpoint": "EC50", "Unit Annotation": "nM", "Recorded Result": 1.4}

Alright, here's another binder for you.
Can you look up the measured EC50 of xi30H9B8F9 hIgG1 (antibody, V domains shown, chimeric, hIgG1) VH: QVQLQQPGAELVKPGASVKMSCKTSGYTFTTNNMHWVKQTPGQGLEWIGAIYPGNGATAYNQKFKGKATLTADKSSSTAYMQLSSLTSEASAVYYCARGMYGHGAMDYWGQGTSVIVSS VL: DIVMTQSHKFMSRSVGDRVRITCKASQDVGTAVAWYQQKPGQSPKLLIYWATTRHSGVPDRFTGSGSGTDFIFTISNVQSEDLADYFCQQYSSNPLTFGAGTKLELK for me?
1.19

The measurements presented in this section are drawn from patent US20240301052A1.
